Each recorded value in this set is attributed to paper PMC6017957.

Tested on: HT-29 colorectal cancer cells
Experiment: MTT anti-proliferative assay against HT-29 cells
Format: cell-based, human
Settings: MTT, 48 h, 0–100 µM; value with 95% confidence interval; read-out: HT-29 IC50 μM (95% CI)
outcome.measure: IC50 (µM)
# number only, unit µM dropped from output

*Q* Returns the measured IC50 for the input compound. Input: CCCCc1cc2c(o1)C(=O)c1ccccc1C2=O [Compound 4f, 2-Butylnaphtho[2,3-b]furan-4,9-dione]
*A* 21.7

---

outcome.measure: melting point (°C)
# number only, unit °C dropped from output

// solved cases for melting point follow
In [3]: df
Out[3]:
                                   molecule  result_value
0  O=C1c2ccccc2C(=O)c2occc21 [Compound 4j, Naphtho[2,3-b]furan-4,9-dione]         229.4
1    CC1(C)OC2=C(C(=O)C(=O)c3ccccc32)C1(C)C            91
2  COC1(C(C)=O)CC2=C(O1)C(=O)c1ccccc1C2=O (centres unmarked)           145
3  C=C(C)C1(C)CC2=C(O1)C(=O)c1ccccc1C2=O (centres unmarked)           135
4  Cc1cc2c(o1)-c1ccccc1C(=O)C2=O [Compound 4g, 2-Methylnaphtho[1,2-b]furan-4,5-dione]           124
5  C=C(C)C1(C)CC2=C(O1)c1ccccc1C(=O)C2=O (centres unmarked)           147
6                CC1=C(Cl)C(=O)c2ccccc2C1=O           158
7         CCCC/C=C/C1=C(O)C(=O)c2ccccc2C1=O            85
8  CCc1cc2c(o1)-c1ccccc1C(=O)C2=O [Compound 4h, 2-Ethylnaphtho[1,2-b]furan-4,5-dione]           136
9           CC/C=C/C1=C(O)C(=O)c2ccccc2C1=O           107

*Q* Returns the measured melting point for the input molecule. Input: O=C1c2ccccc2C(=O)c2oc(-c3ccccc3)cc21 [Compound 4k, 2-Phenylnaphtho[2,3-b]furan-4,9-dione]
*A* 220

---

outcome.measure: melting point (°C)
# number only, unit °C dropped from output

>>> print(df.to_string())
                                   compound  outcome_measure  result_value
0  C=CC1(C)CC2=C(O1)c1ccccc1C(=O)C2=O (stereo not drawn)    melting point           150
1  CCCCc1cc2c(o1)-c1ccccc1C(=O)C2=O [Compound 4i, 2-Butylnaphtho[1,2-b]furan-4,5-dione]    melting point            64

# evaluate next
*Q* Returns the measured melting point for the input compound. Input: COC(=O)C1C2=C(OC1c1ccccc1)C(=O)c1ccccc1C2=O (stereo not drawn)
*A* 167

---

Tested on: HT-29 colorectal cancer cells
Test: MTT anti-proliferative assay against HT-29 cells
Assay type: cell-based, human
Details: classified by HT-29 IC50
outcome.measure: Cytotoxic activity category against HT-29

                                   compound   result_value
0  CCc1cc2c(o1)-c1ccccc1C(=O)C2=O [Compound 4h, 2-Ethylnaphtho[1,2-b]furan-4,5-dione]  highly active
1  CC(=O)c1cc2c(o1)C(=O)c1ccccc1C2=O [Compound 4m, 2-Acetylnaphtho[2,3-b]furan-4,9-dione]  highly active
2  CCCCc1cc2c(o1)-c1ccccc1C(=O)C2=O [Compound 4i, 2-Butylnaphtho[1,2-b]furan-4,5-dione]  highly active
